- test summary: melting temperature; fluorescence melt of hairpins on a sequencing array, two-state fit, raised by 9.35 °C to match UV melts
- condition summary: sodium 0.088 M
Decide by Tm: equal to or exceeding 50 °C means rule met, less means rule not met.

1) GAAGTAGGAAACCACTTC (((((.(....).))))) ... rule not met
2) GATCCGATCCCGGATC ((((((....)))))) ... rule met
3) GCGCGGTCGAAAGACCGC (((..(((....)))))) ... rule met
4) GTTGAGGGAAACCTCAAC (((((((....))))))) ... rule met
5) GCTATGCGAAAGCTTAGC ((((.((....)).)))) ... rule met

Asked: Assess whether reported Tm for GATCCATTCTGGATC ((((((...)))))) sits at 50 °C or higher.
Given back: rule met

Asked: In plain terms: is recorded Tm at least 50 °C for GATCGATACGTCGATC ((((((....)))))) ?
Given back: rule met

Asked: Is the recorded value of Tm equal to or greater than 50 °C for this sequence? GATCCTTACGAGGATC ((((((....))))))
Given back: rule met

Asked: Confirm if Tm reported for the sequence GAGAGCCGAAAGGCACTC (((.(((....))).))) is 50 °C or above.
Given back: rule met

Asked: Dear colleague, could you confirm whether GCTGGCCGAAAGGCAGC (((.(((....)))))) has Tm at or above 50 °C?
Given back: rule met

====

- test summary: folding enthalpy; higher = less favourable; fluorescence melt of hairpins on a sequencing array, two-state fit
- condition summary: sodium 0.088 M
measure name: folding enthalpy (kcal/mol)
Give bare numbers, in kcal/mol.

Worked cases, answers included:
1) GGCATCGAAAGATACGCC ((((((....)))..))) ... -24.3
2) GGGCAGCGAAAGCTTCCC (((.(((....))).))) ... -38.7

Report folding enthalpy for each item below.
1. GCCATGCGAAAGCACGGC (((.(((....))).)))
2. GGATTTTCGAAAGAATCC (((..(((....))))))
3. GTCGACGGAAACGTTGGC (.(.(((....))).).)
4. CGAGGCGGAAACGCGTCG (((.(((....))).)))
5. GCCACGCGAAAGCTAGGC (((..((....))..)))

Given back:
-49.1
-17.7
-24.6
-32.1
-21.9

Report folding enthalpy for every entry below.
1. GACGCCGGAAACGGTGTC (((.(((....))).)))
2. GTGGTTGGAAACAACTAC ((.((((....)))).))
3. GTAGGGGGAAACCTCTAC ((((.((....)).))))
4. GCTATGCGAAAGCAACGC ((..(((....)))..))

Given back:
1. -45.9
2. -24.8
3. -33
4. -10.5

Could you report folding enthalpy for every entry in the following list?
1. GTCCCCGAAAGGGGGAC ((((((....))).)))
2. GATCCCTGTGGGGATC ((((((....))))))
3. GATCTAACAATAGATC ((((((....))))))
4. GCCTCCGAAAGGACCGGC ((((((....)))..)))
5. GGTGGCCGAAAGGCTACC (((.(((....))).)))
6. GCGCGGCGAAAGCCTGGC ((..(((....)))..))

Given back:
-17.1
-41.6
-17.6
-25
-29.6
-15.3

====

Kindly supply the reported Tm values for the records listed here.
- test summary: melting temperature; fluorescence melt of hairpins on a sequencing array, two-state fit, raised by 9.35 °C to match UV melts
- condition summary: sodium 0.088 M
Quick note: unit goes after the number.

1) GCCACCGAAAGGTAGGGC ((((((....)))..))) ... 52.7 °C
2) GGATTAGGAAACTGATCC ((((.((....)).)))) ... 41.8 °C
3) GGGATCGGAAACGATTCC ((.((((....)))).)) ... 53.5 °C
4) GATCCACTCCTGGATC ((((((....)))))) ... 50.3 °C
5) GCCTAGCGAAAGCTGGC (((.(((....)))))) ... 64.8 °C

List reported Tm for each of these sequences:
1. GAGGTAGCGAAAGCTCTC (((..(((....))))))
2. GGGGCCGAAAGGCATCCC ((((((....)))..)))

Given back:
38 °C
54.9 °C

Required: Tm, one value per sequence below.
1. GCCGCGCGAAAGCTCCGC ((.(.((....)).).))
2. GAGTGAGGAAACTCACCC (.(((((....))))).)
3. GACCGGGGAAACCCGACC (..((((....))))..)
4. GATCATTGCAATGATC ((((((....))))))
5. GGACGTGGAAACGTGTCC ((((..(....)..))))

Given back:
1: 33.2 °C; 2: 39.4 °C; 3: 30 °C; 4: 52.3 °C; 5: 44.3 °C

Parameter requested: Tm. Apply to each item below.
1. GCCAGGGGAAACCCTGAC (.(((((....))))).)
2. GATCCTCACAGGATC ((((((...))))))

Given back:
1. 47.6 °C
2. 54 °C

Would you be so kind as to report Tm for each listed record?
1. GTGCATGGAAACATGTGC (..((((....))))..)
2. GGCACGGCGAAAGCCGCC (((..(((....))))))

Given back:
1. 43 °C
2. 44.6 °C

====

- test summary: melting temperature; fluorescence melt of hairpins on a sequencing array, two-state fit, raised by 9.35 °C to match UV melts
- condition summary: sodium 0.088 M
Please mark Y if the recorded Tm is equal to or greater than 50 °C, and N if it falls below.

1. GGATTTACGAAAGTATCC (((..(((....)))))) ... N
2. GTGGATCCGAAAGGACAC (((..(((....)))))) ... N
3. GCATAGACGAAAGTCTGC (((..(((....)))))) ... N

// switching to the query sequence
Asked: In plain terms: is recorded Tm at least 50 °C for GAGCCCGGAAACGGACCC (.(.(((....))).).) ?
Given back: N

====

- test summary: melting temperature; fluorescence melt of hairpins on a sequencing array, two-state fit, raised by 9.35 °C to match UV melts
- condition summary: sodium 0.088 M
measure name: Tm (°C)
One number for each entry, in °C.

1) GGTATCGAAAGATGTACC ((((((....)))..))) ... 32.5
2) GTGAGGGCGAAAGCCCAC (((..(((....)))))) ... 46.5
3) GCCCTGGCGAAAGCCGGC (((..(((....)))))) ... 52
4) GATCCTCCTTAGGATC ((((((....)))))) ... 50.9
5) GCATTAGGAAACTGATGC ((((.((....)).)))) ... 45.4
6) GCTTTGCGAAAGCGATGC ((.(.((....)).).)) ... 46.5
7) GCGTCAAACGC ((((...)))) ... 50.8
8) GGGTGGCGAAAGCCCCC (((.(((....)))))) ... 66.9

// for each sequence in input: emit Tm
1. GATCCCTAGTGGGATC ((((((....))))))
2. TGCATGAAAATGCA (((((....)))))
3. GTAGGTGGAAACACCTGC (.(((((....))))).)
4. GATCGAGGTTTCGATC ((((((....))))))
5. GATCACGGACGTGATC ((((((....))))))
6. GATCCCCATGGGGATC ((((((....))))))

Given back:
[57, 52, 53.4, 53.2, 67.2, 67.7]

Hey, quick one: what's Tm for each of these?
1. GTGTCACCGAAAGGTCAC (((..(((....))))))
2. GGTAGCTCGAAAGAGACC (((..(((....))))))
3. GCGAACGCGAAAGCGCGC (((..(((....))))))
4. GCAAGGGGAAACCTTTGC ((((.((....)).))))
5. GCATCCGAAAGGAACTGC ((((((....)))..)))

Given back:
38.2
28.3
60.1
47.6
33.5

For each listed entry, give its Tm.
1. GCAGAGGGAAACCTCTGC (((((((....)))))))
2. GCACACGAAAGTGTATGC ((((((....)))..)))
3. GGAGGCGAAAGCCCTCC ((((((....))).)))
4. GGCTTCCGAAAGGATGCC (((.(((....))).)))
5. GTTTTCCGAAAGGACAAC (((.(((....))).)))
6. GGATCAGGAAACTGACCC ((.((((....)))).))

Given back:
1. 67.9
2. 45.8
3. 61.1
4. 62
5. 41.7
6. 41.4

// each sequence listed below needs its Tm
1. GCGCCGTCGAAAGACCGC (((..(((....))))))
2. GCGGCAGGAAACCGCCAC (.(((.(....).))).)

Given back:
1. 50.8
2. 47.5

Where these numbers come from: the array DNA melting data of Ke et al. (doi:10.1101/2024.01.08.574731)
